Quick reference: CC50 of the listed items.
test: NOVARTIS: Cytotoxicity against human hepatocellular carcinoma cell line (Huh7); type: toxicity, cell-based, Huh-7; conditions: Huh7 cells (hepatocellular carcinoma cell line)
Enter your answer as a number in µM; do not include the unit.

compound	unit name	CC50
COC(=O)c1ccc(C2C3=C(O)CC(c4cccs4)CC3=Nc3ccccc3N2C(=O)c2ccccc2)cc1 (stereo not given)	µM	25

# context switch: different compound, same CC50
Q: Would you mind telling me what CC50 value was observed for `CCCCCC[P+](N(CCC)CCC)(N(CCC)CCC)N(CCC)CCC` ?
A: 1.16

----------
Quick reference: CC50 of the listed items.
assay: NOVARTIS: Cytotoxicity against human hepatocellular carcinoma cell line (Huh7); format: toxicity, cell-based, Huh-7; details: Huh7 cells (hepatocellular carcinoma cell line)

Q: Would you mind telling me what CC50 value was observed for `CCCC(=O)N1c2ccc(OC)cc2-c2c(ssc2=S)C1(C)C` ?
A: > 100 µM

Q: // repeat for `CC1=C(CC(=O)c2ccc(Cl)cc2)C(=O)c2ccccc2C1=O` and report
A: 46.6 µM

Q: // repeat for `CN(CCCNc1ccnc2cc(Cl)ccc12)C(=O)c1ccc(F)cc1` and report
A: > 10 µM

Q: // repeat for `Oc1ccc(-c2ccnc3cc(Cl)ccc23)cc1CNCC1(O)CCCCC1` and report
A: > 13.7 µM

Q: // repeat for Cc1cc(-c2cn[nH]c2C2CCCN(C(=O)Cc3ccccc3F)C2)on1 (stereo unspecified) and report
A: > 10 µM

Q: // repeat for `Nc1nc(N)c2c(Oc3ccccc3)cccc2n1` and report
A: > 10 µM

Q: // repeat for `CCCCN1C=CC=C/C1=C\c1sc2ccccc2[n+]1CC` and report
A: 1.8 µM

Q: // repeat for `O=C(N1CCCCC1)n1nnc2ccccc21` and report
A: > 100 µM

Q: // repeat for `Cc1ccc2[nH]c3c(NCCN4CCCC4)ncnc3c2c1` and report
A: 46.5 µM

Q: // repeat for `Nc1nonc1-n1nnc(-c2ccccc2)c1C(=O)NN=Cc1ccc(F)c(Br)c1` and report
A: > 100 µM

Q: // repeat for `COc1ccc(CNC(=O)c2ccc3c(c2)N=C(/C=C/c2ccccc2)N(CCN2CCOCC2)C3)cc1` and report
A: > 10 µM
